# experimental.system: pseudo-kinase domain (JH2, amino-acids 536-812) of human Wild Type JAK2 (Homo sapiens, UniProt O60674, F794H/W659A/W777A)
# Construct: pseudo-kinase domain (JH2, amino-acids 536-812 with 3 surface mutations W659A, W777A, F794H)
# Sequence (O60674 536-812 W659A/W777A/F794H): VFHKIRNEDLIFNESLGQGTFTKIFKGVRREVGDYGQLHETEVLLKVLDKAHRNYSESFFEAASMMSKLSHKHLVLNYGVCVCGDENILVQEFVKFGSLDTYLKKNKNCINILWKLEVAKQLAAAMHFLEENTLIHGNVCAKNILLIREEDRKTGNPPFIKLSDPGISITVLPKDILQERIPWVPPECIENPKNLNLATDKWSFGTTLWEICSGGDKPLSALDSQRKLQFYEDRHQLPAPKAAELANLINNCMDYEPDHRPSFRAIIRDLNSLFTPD
# assay.details: JAK2 LanthaScreen JH2-WT Binding Assay
# recorded.conditions: 1 hour at 25° C.
pIC50: −log10 of the molar value. Structures can show the parent of a compound that is named as a salt.
Property: pIC50; scope: individual molecules

Here are 5 molecules together with their reported answers.
Please indicate pIC50 recorded for CO[C@H]1CC[C@@](CC#N)(N2CCC3(CC2)C(=O)N(C)c2cnc4[nH]c(-c5cnn(C)c5)c(-c5ccc6c(cnn6C)c5)c4c23)CC1 (single isomer, unassigned) [Example 75a]
≥ 7.00

Please indicate pIC50 recorded for CC(=O)N1CCC(N2CC3(C2)C(=O)N(C)c2cnc4[nH]c(-c5ccc(CN6CCC(S(C)(=O)=O)CC6)cc5)c(-c5ccccc5)c4c23)CC1
6.30 to 7.00

Please indicate pIC50 recorded for O=C(O)C(F)(F)F.[2H]C([2H])([2H])n1ncc2cc(-c3c(-c4cnn(CC(C)(C)OC)c4)[nH]c4ncc5c(c34)C3(CC4(CN(S(=O)(=O)CC)C4)C3)C(=O)N5C)ccc21
≥ 7.00

Please indicate pIC50 recorded for CN1C(=O)C2(CCCC2)c2c1cnc1[nH]c(-c3cnn(C)c3)c(-c3ccc(CN4CCN(S(C)(=O)=O)CC4)cc3)c21 [Example 22, trifluoroacetate salt]
≥ 7.00

Please indicate pIC50 recorded for CC(=O)N1CC(CC#N)(N2CCC3(CC2)C(=O)N(C)c2cnc4[nH]c(-c5cnn(C)c5)c(-c5ccccc5)c4c23)C1 [Example 24, trifluoroacetate salt]
≥ 7.00

***
Please indicate pIC50 recorded for CN1C(=O)C2(CCOC2)c2c1cnc1[nH]c(-c3ccc(CN4CCC(S(C)(=O)=O)CC4)cc3)c(-c3ccccc3)c21 (racemic) [Example 2, trifluoroacetate salt]
≥ 7.00

Please indicate pIC50 recorded for CN1C(=O)C2(CCN(C3(CC#N)CCC3)CC2)c2c1cnc1[nH]c(-c3cnn(CC(C)(C)O)c3)c(-c3ccc(OC(F)(F)F)cc3)c21 [Example 50, trifluoroacetate salt]
≥ 7.00

Please indicate pIC50 recorded for CN1C(=O)[C@@]2(CCN(CC3(CC#N)CC3)C2)c2c1cnc1[nH]c(-c3cnn(C)c3)c(-c3ccc4c(cnn4C)c3)c21 (single isomer, unassigned)
≥ 7.00

Please indicate pIC50 recorded for C=Cc1c(-c2cnn(C)c2)[nH]c2ncc3c(c12)C1(CCN(c2ccncn2)CC1)C(=O)N3C [Example 18, trifluoroacetate salt]
5.90 to 6.30

Please indicate pIC50 recorded for CCS(=O)(=O)c1ccc(-c2[nH]c3ncc4c(c3c2-c2ccc3c(cnn3C)c2)C2(CCN(C3(CC#N)CCC3)CC2)C(=O)N4C)cc1 [Example 35, trifluoroacetate salt]
≥ 7.00

Please indicate pIC50 recorded for CN1C(=O)C2(CCC2)c2c1cnc1[nH]c(-c3ccc(CN4CCC(S(C)(=O)=O)CC4)cc3)c(-c3ccccc3)c21 [Example 10, trifluoroacetate salt]
≥ 7.00

====

Property: IC50; scope: individual compounds
# experimental.system: pseudo-kinase domain (JH2, amino-acids 536-812) of human Wild Type JAK2 (Homo sapiens, UniProt O60674, F794H/W659A/W777A)
# Construct: pseudo-kinase domain (JH2, amino-acids 536-812 with 3 surface mutations W659A, W777A, F794H)
# assay.details: JAK2 LanthaScreen JH2-WT Binding Assay
# recorded.conditions: 1 hour at 25° C.
Where a name gives a salt, the structure may show the parent alone.

Here are 2 compounds together with their reported answers.
Please indicate IC50 recorded for CC(=O)NC12CC(N3CCC4(CC3)C(=O)N(C)c3cnc5[nH]c(-c6cnn(C)c6)c(-c6ccc7c(cnn7C)c6)c5c34)(C1)C2
≤ 100 nM

Please indicate IC50 recorded for CN1C(=O)C2(CCN(c3ccncn3)CC2)c2c1cnc1[nH]c(-c3cnn(C)c3)c(C3=CCOCC3)c21 [Example 20, trifluoroacetate salt]
100 to 500 nM

***
Please indicate IC50 recorded for CC(=O)N1CCC(n2cc(-c3[nH]c4ncc5c(c4c3-c3ccc4c(cnn4C)c3)C3(CCN(C4(CC#N)CCC4)CC3)C(=O)N5C)cn2)CC1 [Example 41, trifluoroacetate salt]
≤ 100 nM

====

Property: IC50; scope: individual compounds
# experimental.system: pseudo-kinase domain (JH2, amino-acids 536-812) of human V617F mutant JAK2 (Homo sapiens, UniProt O60674, F794H/V617F/W659A/W777A)
# Construct: pseudo-kinase domain (JH2, amino-acids 536-812 with 3 surface mutations W659A, W777A, F794H)
# Sequence (O60674 536-812 V617F/W659A/W777A/F794H): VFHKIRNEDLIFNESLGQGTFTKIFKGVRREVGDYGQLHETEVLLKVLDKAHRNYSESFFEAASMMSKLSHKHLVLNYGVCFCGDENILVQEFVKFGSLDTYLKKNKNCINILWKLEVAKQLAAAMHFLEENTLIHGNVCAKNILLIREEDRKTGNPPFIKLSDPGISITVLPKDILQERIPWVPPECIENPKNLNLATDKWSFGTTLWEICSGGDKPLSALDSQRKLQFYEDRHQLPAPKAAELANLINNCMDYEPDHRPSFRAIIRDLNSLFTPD
# assay.details: JAK2 LanthaScreen JH2-V617F Binding Assay
# recorded.conditions: 1 hour at 25° C.
Structures can show the parent of a compound that is named as a salt.

Here are 4 compounds together with their reported answers.
Please indicate IC50 recorded for CN1C(=O)C2(CCN(C3(CC#N)CCC3)CC2)c2c1cnc1[nH]c(-c3cnn(CC(C)(C)O)c3)c(-c3ccc(OC(F)(F)F)cc3)c21 [Example 50, trifluoroacetate salt]
≤ 100 nM

Please indicate IC50 recorded for CCS(=O)(=O)N1CC2(C1)CC1(C2)C(=O)N(C)c2cnc3[nH]c(-c4cnn(CC5CCOCC5)c4)c(-c4ccc5c(cnn5C)c4)c3c21 [Example 97, trifluoroacetate salt]
≤ 100 nM

Please indicate IC50 recorded for CN1C(=O)C2(CCN(CC3(CC#N)CC3)C2)c2c1cnc1[nH]c(-c3cnn4cccnc34)c(-c3ccc4c(cnn4C)c3)c21 (racemic) [Example 68, trifluoroacetate salt]
≤ 100 nM

Please indicate IC50 recorded for CN1C(=O)C2(CCN(C3(CC#N)CCC3)CC2)c2c1cnc1[nH]c(C3=CCC(C(=O)N4CCOCC4)CC3)c(-c3ccc4c(cnn4C)c3)c21 (racemic) [Example 34, trifluoroacetate salt]
≤ 100 nM

***
Please indicate IC50 recorded for Cc1ncc(-c2c(-c3cnn(C)c3)[nH]c3ncc4c(c23)C2(CCN(c3ccncn3)CC2)C(=O)N4C)s1 [Example 17, trifluoroacetate salt]
100 to 500 nM

Please indicate IC50 recorded for CN1C(=O)C2(CCN(C3(C)CCS(=O)(=O)C3)CC2)c2c1cnc1[nH]c(-c3cnn(C)c3)c(-c3ccc4c(cnn4C)c3)c21 (racemic)
≤ 100 nM

====

# experimental.system: pseudo-kinase domain (JH2, amino-acids 536-812) of human Wild Type JAK2 (Homo sapiens, UniProt O60674, F794H/W659A/W777A)
# Construct: pseudo-kinase domain (JH2, amino-acids 536-812 with 3 surface mutations W659A, W777A, F794H)
# assay.details: JAK2 LanthaScreen JH2-WT Binding Assay
# recorded.conditions: 1 hour at 25° C.
Structures can show the parent of a compound that is named as a salt.
experimental.endpoint: IC50

Please indicate IC50 recorded for COCCn1cc(-c2[nH]c3ncc4c(c3c2-c2ccc3c(cnn3C)c2)C2(CCN(C3(CC#N)CCC3)CC2)C(=O)N4C)cn1 [Example 36, trifluoroacetate salt]
≤ 100 nM

***
Please indicate IC50 recorded for CN1C(=O)C2(CCCC2)c2c1cnc1[nH]c(C3CC3)c(-c3ccc4c(cnn4C)c3)c21 [Example 9, trifluoroacetate salt]
100 to 500 nM

Please indicate IC50 recorded for COC(=O)N1CC2(N3CCC4(CC3)C(=O)N(C)c3cnc5[nH]c(-c6cnn(C)c6)c(-c6ccc7c(cnn7C)c6)c5c34)CC1C2
≤ 100 nM

Please indicate IC50 recorded for CN1C(=O)C2(CCN(C3(CC#N)CCC3)CC2)c2c1cnc1[nH]c(-c3cnn(CC(C)(C)O)c3)c(-c3ccc4c(cnn4C)c3)c21 [Example 32, trifluoroacetate salt]
≤ 100 nM

Please indicate IC50 recorded for [2H]C([2H])([2H])N1C(=O)C2(CCCN(S(=O)(=O)C3(C)CC3)CC2)c2c1cnc1[nH]c(-c3cnn(C(C)C)c3)c(-c3ccc4c(cnn4C)c3)c21 (single isomer, unassigned) [Example 103, trifluoroacetate salt]
≤ 100 nM

Please indicate IC50 recorded for CN1C(=O)C2(Cc3ccccc3C2)c2c1cnc1[nH]c(-c3ccc(CN4CCC(S(C)(=O)=O)CC4)cc3)cc21
1250 to 2500 nM

====

# experimental.system: catalytic domain (JH1, amino acids 808-1132) of human JAK2 (Homo sapiens)
# Construct: catalytic domain (JH1, amino acids 808-1132) of human JAK2; His (N)
# Sequence (O60674 808-1132): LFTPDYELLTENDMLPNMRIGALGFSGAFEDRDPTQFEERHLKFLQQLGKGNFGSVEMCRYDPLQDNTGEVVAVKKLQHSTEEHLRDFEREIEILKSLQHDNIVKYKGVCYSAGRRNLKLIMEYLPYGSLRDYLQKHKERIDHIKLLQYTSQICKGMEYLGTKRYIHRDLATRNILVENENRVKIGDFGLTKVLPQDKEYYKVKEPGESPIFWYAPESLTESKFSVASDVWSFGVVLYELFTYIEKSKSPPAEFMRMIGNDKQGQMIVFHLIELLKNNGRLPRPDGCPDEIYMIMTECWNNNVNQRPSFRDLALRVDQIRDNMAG
# assay.details: JAK2 HTRF Enzyme Activity Assay
# recorded.conditions: ATP 30 μM, read-out: ENZ 30UMATP
Structures can show the parent of a compound that is named as a salt.
experimental.endpoint: IC50

Lab note: record IC50 of CN1C(=O)C2(CCOCC2)c2c1cnc1[nH]c(-c3ccc(CN4CCC(S(C)(=O)=O)CC4)cc3)c(-c3ccccc3)c21 tested on catalytic domain (JH1, amino acids 808-1132) of human JAK2 (Homo sapiens).
1.25 to 2.5 µM

***
Lab note: record IC50 of CN1C(=O)C2(C=CN(C3(CC#N)CC3)C=C2)c2c1cnc1[nH]c(-c3cnn(C)c3)c(-c3ccc4c(cnn4C)c3)c21 [Example 74, trifluoroacetate salt] tested on catalytic domain (JH1, amino acids 808-1132) of human JAK2 (Homo sapiens).
0.5 to 1.25 µM

Lab note: record IC50 of CCNC(=O)N1CC(CC#N)(N2CCC3(CC2)C(=O)N(C)c2cnc4[nH]c(-c5cnn(C)c5)c(-c5ccccc5)c4c23)C1 [Example 25, trifluoroacetate salt] tested on catalytic domain (JH1, amino acids 808-1132) of human JAK2 (Homo sapiens).
0.1 to 0.5 µM

Lab note: record IC50 of CN1C(=O)C2(CCN(C3(CC#N)CCC3)CC2)c2c1cnc1[nH]c(-c3cnn(CC(C)(C)O)c3)c(-c3ccc(C(F)(F)F)cc3)c21 [Example 52, trifluoroacetate salt] tested on catalytic domain (JH1, amino acids 808-1132) of human JAK2 (Homo sapiens).
> 2.5 µM

Lab note: record IC50 of [2H]C([2H])([2H])n1ncc2cc(-c3c(-c4cnn(C)c4)[nH]c4ncc5c(c34)C3(CC4(CCN(C(=O)OC)CC4)C3)C(=O)N5C)ccc21 [Example 58, trifluoroacetate salt] tested on catalytic domain (JH1, amino acids 808-1132) of human JAK2 (Homo sapiens).
1.25 to 2.5 µM
